- Tested on: HepG2 (Hepatocellular Carcinoma)
- EXPERIMENT NOTES: Cell viability analysis (WST-1), HepG2
- Assay type: cell-based
- COND: Table 4, repeated experiments; drug 10 μM, 72 hours, WST-1
Answer each item with its documented survival rate (viability) of cancer cells, HepG2.
// keep it numeric: no unit symbol after the value

Ask: Which survival rate (viability) of cancer cells, HepG2 is listed for O=C([O-])C[C@H](O)C[C@H](O)/C=C/c1c(C2CC2)nc2ccccc2c1-c1ccc(F)cc1.O=C([O-])C[C@H](O)C[C@H](O)/C=C/c1c(C2CC2)nc2ccccc2c1-c1ccc(F)cc1.[Ca+2] ?
Result: 98.06

Ask: Which survival rate (viability) of cancer cells, HepG2 is listed for CCOC(=O)C1=C(COCCN)NC(C)=C(C(=O)OC)C1c1ccccc1Cl (stereo not shown) [Amlodipine (Norvase), Amlodipine] ?
Result: 71.76

Ask: Which survival rate (viability) of cancer cells, HepG2 is listed for CCOC(=O)C1=C(COCCN)NC(C)=C(C(=O)OC)C1c1ccccc1Cl (stereo not shown) [Amlodipine besylate (Norvase), Amlodipine besylate] ?
Result: 95.01

Ask: Which survival rate (viability) of cancer cells, HepG2 is listed for CC(C)c1c(C(=O)Nc2ccccc2)c(-c2ccccc2)c(-c2ccc(F)cc2)n1CC[C@@H](O)C[C@@H](O)CC(=O)[O-].CC(C)c1c(C(=O)Nc2ccccc2)c(-c2ccccc2)c(-c2ccc(F)cc2)n1CC[C@@H](O)C[C@@H](O)CC(=O)[O-].[Ca+2] ?
Result: 95.92

====

- Test system: HL-60 (Acute Promyelocytic Leukemia)
- EXPERIMENT NOTES: Cell viability analysis (WST-1), HL-60
- Type: cell-based
- COND: Homo sapiens, HL-60; Table 3; drug 10 μM, 72 hours, WST-1, OD450 nm; read-out: survival rate (viability) of cancer cells, HL-60
Counter-ions that a name gives are not always drawn.
The threshold is 90%. Values of viability at 10 µM beneath it are tagged 1; values meeting or exceeding it are tagged 0.

Ask: Determine whether this molecule shows viability at 10 µM lower than 90% (ties excluded): Cc1cccc(Cc2c[nH]cn2)c1C [Detomidine HCl]
Result: 0

Ask: Determine whether this molecule shows viability at 10 µM lower than 90% (ties excluded): CC(C)NCC(O)COc1ccc(COCCOC(C)C)cc1 (stereo not drawn)
Result: 1

Ask: Determine whether this molecule shows viability at 10 µM lower than 90% (ties excluded): Cc1c(OCC(F)(F)F)ccnc1C[S@@+]([O-])c1nc2ccccc2[nH]1
Result: 1

Ask: Determine whether this molecule shows viability at 10 µM lower than 90% (ties excluded): CCN(CC)CCOC(=O)C(c1ccccc1)c1ccccc1 [Adiphenine HCl]
Result: 0

Ask: Determine whether this molecule shows viability at 10 µM lower than 90% (ties excluded): Cc1cnc(C(=O)O)c[n+]1[O-]
Result: 0

Ask: Determine whether this molecule shows viability at 10 µM lower than 90% (ties excluded): Cc1[nH]c(=O)c(C#N)cc1-c1ccncc1
Result: 0

====

- Tested on: HeLa (Cervix Adenocarcinoma)
- EXPERIMENT NOTES: Cell viability analysis (WST-1), HeLa
- Type: cell-based
- COND: Homo sapiens, HeLa, 72 h, Table 3, drug 10 μM, WST-1, OD450 nm, read-out: survival rate (viability) of cancer cells, HeLa
The threshold is 90%. Values of viability at 10 µM beneath it are tagged fulfilled; values meeting or exceeding it are tagged not fulfilled.

Ask: Determine whether this molecule shows viability at 10 µM lower than 90% (ties excluded): COCCCOc1cc(C[C@@H](C[C@H](N)[C@@H](O)C[C@H](C(=O)NCC(C)(C)C(N)=O)C(C)C)C(C)C)ccc1OC [Aliskiren hemifumarate]
Result: not fulfilled

Ask: Determine whether this molecule shows viability at 10 µM lower than 90% (ties excluded): Cc1cccc(Nc2ccccc2C(=O)O)c1C [Mefenamic acid]
Result: fulfilled

Ask: Determine whether this molecule shows viability at 10 µM lower than 90% (ties excluded): CC(=O)O[C@H]1C[C@@H]2CC[C@@H]3[C@H](CC[C@@]4(C)[C@H]3C[C@H]([N+]3(C)CCCCC3)[C@@H]4OC(C)=O)[C@@]2(C)C[C@@H]1[N+]1(C)CCCCC1 [Pancuronium (Pavulon), Pancuronium]
Result: fulfilled

Ask: Determine whether this molecule shows viability at 10 µM lower than 90% (ties excluded): CCCCNc1cc(C(=O)O)cc(S(N)(=O)=O)c1Oc1ccccc1 [Bumetanide]
Result: fulfilled

Ask: Determine whether this molecule shows viability at 10 µM lower than 90% (ties excluded): CC(C)NCC(O)COc1ccc(COCCOC(C)C)cc1 (centres unmarked) [Bisoprolol]
Result: not fulfilled

====

- System: AGS (Gastric Adenocarcinoma)
- EXPERIMENT NOTES: Cell viability analysis (WST-1), AGS
- Format: cell-based
- COND: 72 h, Table 4, repeated experiments, drug 10 μM, WST-1, read-out: survival rate (viability) of cancer cells, AGS
Counter-ions that a name gives are not always drawn.
REPORTED PROPERTY: viability at 10 µM

Ask: Which viability at 10 µM is listed for CC1=C(C(=O)OC(C)C)C(c2cccc([N+](=O)[O-])c2)C(C(=O)OC2CN(C(c3ccccc3)c3ccccc3)C2)=C(N)N1 (stereo not shown) [Azelnidipine] ?
Result: 90.2%

Ask: Which viability at 10 µM is listed for COC(=O)C1=C(C)NC(C)=C(C(=O)OC2CCCN(Cc3ccccc3)C2)C1c1cccc([N+](=O)[O-])c1 (stereo not shown) [Benidipine hydrochloride] ?
Result: 87.8%

Ask: Which viability at 10 µM is listed for CCC(C)(C)C(=O)O[C@H]1C[C@@H](C)C=C2C=C[C@H](C)[C@H](CC[C@@H]3C[C@@H](O)CC(=O)O3)[C@H]21 [Simvastatin (Zocor), Simvastatin] ?
Result: 81%

Ask: Which viability at 10 µM is listed for CC(C)N(CCC(C(N)=O)(c1ccccc1)c1ccccn1)C(C)C (stereo not shown) [Disopyramide Phosphate] ?
Result: 95.9%

Ask: Which viability at 10 µM is listed for COCCOC(=O)C1=C(C)NC(C)=C(C(=O)OC/C=C/c2ccccc2)C1c1cccc([N+](=O)[O-])c1 (stereo not shown) [Cilnidipine] ?
Result: 76.9%

Ask: Which viability at 10 µM is listed for OC(CNCC(O)C1CCc2cc(F)ccc2O1)C1CCc2cc(F)ccc2O1 (stereo not shown) [Nebivolol(Bystolic), Nebivolol] ?
Result: 26.6%

Ask: Which viability at 10 µM is listed for CCOC(=O)C1=C(COCCN)NC(C)=C(C(=O)OC)C1c1ccccc1Cl (stereo not shown) [Amlodipine (Norvase), Amlodipine] ?
Result: 16.5%

====

Answer each item with its documented viability at 10 µM.
- Test system: AGS (Gastric Adenocarcinoma)
- EXPERIMENT NOTES: Cell viability analysis (WST-1), AGS
- Assay type: cell-based
- COND: 72 h, Table 4, repeated experiments, drug 10 μM, WST-1, read-out: survival rate (viability) of cancer cells, AGS
Counter-ions that a name gives are not always drawn.
Number first, unit second: that is the form wanted.

Ask: Could you share what viability at 10 µM was measured for COc1cc2nc(N3CCN(C(=O)c4ccco4)CC3)nc(N)c2cc1OC [Prazosin HCl] , tested on AGS (Gastric Adenocarcinoma)?
Result: 86.8%

Ask: Could you share what viability at 10 µM was measured for CCC[C@H](N[C@@H](C)C(=O)N1[C@H](C(=O)O)C[C@@H]2CCCC[C@@H]21)C(=O)OCC , tested on AGS (Gastric Adenocarcinoma)?
Result: 87.1%

Ask: Could you share what viability at 10 µM was measured for CCCCc1nc(Cl)c(CO)n1Cc1ccc(-c2ccccc2-c2nn[nH]n2)cc1 , tested on AGS (Gastric Adenocarcinoma)?
Result: 74.1%

Ask: Could you share what viability at 10 µM was measured for COC(=O)C1=C(C)NC(C)=C(C(=O)OCC(C)C)C1c1ccccc1[N+](=O)[O-] (stereo not shown) [Nisoldipine (Sular), Nisoldipine] , tested on AGS (Gastric Adenocarcinoma)?
Result: 64.7%

====

- Test system: H1650 (Lung Adenocarcinoma)
- EXPERIMENT NOTES: Cell viability analysis (WST-1), H1650
- Type: cell-based
- COND: Table 4, repeated experiments; drug 10 μM, 72 hours, WST-1
REPORTED PROPERTY: survival rate (viability) of cancer cells, H1650
// keep it numeric: no unit symbol after the value

Ask: Which survival rate (viability) of cancer cells, H1650 is listed for CC(C)c1c(C(=O)Nc2ccccc2)c(-c2ccccc2)c(-c2ccc(F)cc2)n1CC[C@@H](O)C[C@@H](O)CC(=O)[O-].CC(C)c1c(C(=O)Nc2ccccc2)c(-c2ccccc2)c(-c2ccc(F)cc2)n1CC[C@@H](O)C[C@@H](O)CC(=O)[O-].[Ca+2] ?
Result: 69.55

Ask: Which survival rate (viability) of cancer cells, H1650 is listed for O=C([O-])C[C@H](O)C[C@H](O)/C=C/c1c(C2CC2)nc2ccccc2c1-c1ccc(F)cc1.O=C([O-])C[C@H](O)C[C@H](O)/C=C/c1c(C2CC2)nc2ccccc2c1-c1ccc(F)cc1.[Ca+2] ?
Result: 49.9822

Ask: Which survival rate (viability) of cancer cells, H1650 is listed for CCOC(=O)C1=C(COCCN)NC(C)=C(C(=O)OC)C1c1ccccc1Cl (stereo not shown) [Amlodipine (Norvase), Amlodipine] ?
Result: 72.01

Ask: Which survival rate (viability) of cancer cells, H1650 is listed for CCOC(=O)C1=C(COCCN)NC(C)=C(C(=O)OC)C1c1ccccc1Cl (stereo not shown) [Amlodipine besylate (Norvase), Amlodipine besylate] ?
Result: 110.2477
